meta.source: ChEMBL document CHEMBL1131136

Test system: P388
Method Description: Cytotoxicity evaluated against P388 cells.
Type: functional, cell-based
Test Conditions: Mus musculus
Measured Property: pIC50
Scale: negative log10 of molar concentration, which is what pIC50 denotes.

API: value(readout=pIC50, system=P388) for record "CCN1CC[C@@](O)(c2ccc(O)cc2)[C@H](C(=O)c2ccc(O)cc2)C1" 5.85

Next record, please: "CCN(CC)CCC(=O)/C=C/c1ccccc1" 5.77

Next record, please: "CCN(CC)CCC(=O)c1ccc(Cl)cc1" 5.49

Next record, please: "O=C(/C=C/c1ccccc1)CCN1CCN(CCC(=O)/C=C/c2ccccc2)CC1" 6.21
